# tgt: human kinase Mps-1 (Homo sapiens)
# Construct: N-terminally GST-tagged human full length recombinant Mps-1 kinase; GST (N)
# Sequence (P33981 whole entry): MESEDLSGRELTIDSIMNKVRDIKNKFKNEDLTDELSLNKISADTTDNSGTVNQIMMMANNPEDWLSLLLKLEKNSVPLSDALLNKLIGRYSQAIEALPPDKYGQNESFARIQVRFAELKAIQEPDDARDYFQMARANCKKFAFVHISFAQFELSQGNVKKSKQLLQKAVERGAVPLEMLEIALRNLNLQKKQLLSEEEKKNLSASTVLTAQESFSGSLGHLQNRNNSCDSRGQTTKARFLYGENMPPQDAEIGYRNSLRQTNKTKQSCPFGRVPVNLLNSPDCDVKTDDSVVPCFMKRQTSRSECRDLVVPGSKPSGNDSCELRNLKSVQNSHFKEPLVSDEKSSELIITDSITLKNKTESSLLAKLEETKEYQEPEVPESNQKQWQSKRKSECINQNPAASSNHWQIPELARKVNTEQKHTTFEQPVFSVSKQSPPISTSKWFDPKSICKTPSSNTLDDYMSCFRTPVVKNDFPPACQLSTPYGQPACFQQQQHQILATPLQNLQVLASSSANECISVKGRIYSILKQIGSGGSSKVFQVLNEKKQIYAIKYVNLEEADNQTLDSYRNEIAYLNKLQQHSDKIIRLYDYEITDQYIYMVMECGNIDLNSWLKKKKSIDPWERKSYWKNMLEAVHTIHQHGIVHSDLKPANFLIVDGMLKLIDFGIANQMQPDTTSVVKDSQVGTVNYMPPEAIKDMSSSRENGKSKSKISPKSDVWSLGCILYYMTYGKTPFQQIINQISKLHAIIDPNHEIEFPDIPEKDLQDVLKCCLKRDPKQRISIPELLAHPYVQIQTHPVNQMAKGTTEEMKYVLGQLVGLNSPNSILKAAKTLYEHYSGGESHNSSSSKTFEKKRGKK
# test-name: Mps-1 kinase assay (TR-FRET)
# test-context: Mps-1 TR-FRET kinase assay; avg; read-out: Mps1 avg (IC50 [mol/l])
value-type: IC50

Recorded results for 3 molecules are shown here.
Item: Cc1nsc(Nc2cnc(C(F)(F)F)cn2)c1C(=O)Nc1ccc(OCCCO)nc1 [Example 279] Test system: human kinase Mps-1 (Homo sapiens) Read-out: IC50 Value: ? > 20 µM

Lab request: please report IC50 under test system human kinase Mps-1 (Homo sapiens) for Cc1nsc(Nc2cnc(C(F)(F)F)cn2)c1C(=O)Nc1ccc(OCCCNCCC(F)(F)F)nc1 [Example 294] > 20 µM

Give the reported IC50 for COc1ccc(NC(=O)c2c(C)nsc2Nc2ccc(C#N)cn2)c(N2CCOCC2)n1 [Example 173] (system: human kinase Mps-1 (Homo sapiens)). > 20 µM

New cases:
Recorded IC50 for Cc1nsc(Nc2cnc(C(F)(F)F)cn2)c1C(=O)Nc1ccc(F)c(OCCCN(C)CC(F)F)c1 [Example 301] with human kinase Mps-1 (Homo sapiens), please? > 20 µM

Give the reported IC50 for Cc1nsc(Nc2cnc(C(F)(F)F)cn2)c1C(=O)Nc1ccc(OC[C@@H]2CCCN(CC(F)F)C2)nc1 [Example 375] (system: human kinase Mps-1 (Homo sapiens)). > 20 µM

Checklist item: IC50 tested on human kinase Mps-1 (Homo sapiens), entry Cc1nsc(Nc2cnc(C(F)(F)F)cn2)c1C(=O)Nc1ccc(O[C@H]2CCN(CCC(F)(F)F)C[C@H]2F)nc1 [Example 146] , value? > 20 µM

What value of IC50 on human kinase Mps-1 (Homo sapiens) does Cc1nsc(Nc2cnc(C(F)(F)F)cn2)c1C(=O)Nc1ccc(O[C@@H]2CCN(CC(F)F)C[C@@H]2F)nc1 [Example 137] have? > 20 µM
